# System: Colon cancer organoid
# METHOD: Optimized Dual-Glo assay to identify co-culture induced drug vulnerabilities using donated chemical probes and chemogenomics kinase set in O06 CRC organoid and F06 CAF mono and co-culture. […] Cell viability is reported both mono and co-culture models.
# Format: functional, Homo sapiens
# Parameters: dose or concentration left out as unconfirmed
# ASSAY_CONTEXT: Culture type Mono-Culture; Transduced with Renilla-dsRed lentivirus
MEASUREMENT_KIND: Cell Viability

Sample answers from the record:
1. CCOc1cc(N2CCC(O)CC2)ccc1Nc1ncc2c(n1)N(C)c1ccccc1C(=O)N2C 165.88%
2. Cn1c(C2(NC(=O)c3ccc(NCC4CCCCC4)nc3)CCC2)nc2ccc(/C=C/C(=O)O)cc21 120.577%
3. CC(C)Oc1ccc(-c2c[nH]cc2CN(C)CCN)cc1 89.9891%
4. C=CC(=O)N1CCC([C@@H]2CCNc3c(C(N)=O)c(-c4ccc(Oc5ccccc5)cc4)nn32)CC1 131.234%

Let us move to another entry and its Cell Viability.
# value of Cell Viability, Colon cancer organoid, item `COc1ccc(CCc2nc3cc(-c4c(C)noc4C)ccc3n2C[C@H](C)N2CCOCC2)cc1Cl` = 156.889%
